# TESTED_SYSTEM: T1, recombinant murine MOG protein (murine, UniProt Q61885 29-156, limits assumed)
# T1 construct: Bought recombinant protein; also called MMOG
# T1 sequence (looked up): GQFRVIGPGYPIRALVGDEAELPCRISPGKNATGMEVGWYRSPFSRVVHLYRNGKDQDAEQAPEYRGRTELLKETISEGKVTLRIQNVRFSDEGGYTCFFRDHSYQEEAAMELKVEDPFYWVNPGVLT
# METHOD_DESCRIPTION: phage-scFv ELISA on coated recombinant murine MOG (0.5 µg/well), anti-M13 HRP, OD450 over BSA background
Response field label takes TRUE when ratio OD on target/OD bdf is strictly below 6 ratio and FALSE in all other cases.

INSERT INTO results (binder, label_class) VALUES
  ('anti-MOG MO3J-12 antibody (scFv, V domains shown) VH: EVQLLESGGGLVQPGGSLRLSCAASGFTFSTYWMHWVRQAPGRGLVWVSRINTDGSSTDYADSVKGRFTISRDNAKNTLYLQMNSLRAEDTAVYSCARGGQLVAAANDNWLDPWGQGTLVTVSS VL: AIQLTQSPSSLSASAGDRVTITCRASQSINNYLNWYQQKPGKAPKVLIYGASNLQSGVPSRFSGSGSGTDFTLTISSLQPEDFATYYCQQSYSTPRTFGQGTKVEIK', 'FALSE'),
  ('anti-MOG MO4B-42 antibody (scFv, V domains shown) VH: MAGSLQVDQVQLVQSGAEVKRPGESLKISCEGSGYSFTSSWIGWVRQMPGKGLECMGIIYPGDSDTRYSPSFQGHVTISADKSISTAYLQWSSLRASDTAMYYCARAYHSDYGFDFWGQGTLVTVSS VL: EIVLTQPLSVSESPGKTVTISCTRSSGSIANNFVQWYQRRPGSSPTTVIYENDQRPSGVPDRFSGSIDSSSNSASLTITGLETQDEADYYCQSFNDDVGGGNSGGGTK', 'FALSE'),
  ('anti-MOG MO3J-51 antibody (scFv, V domains shown) VH: EVQLVQSGAEVKKPGASVKVSCKASGYTFTSYGISWVRQAPGQGLEWMGWISAYNGNTNYAQKLQGRVTMTTDTSTSTAYMELRSLGSDDTAVYYCARNMGCSSTSCFVSWFDPWGQGTLVTVSS VL: QSVLTQPPSVSAAPGRKVTISCSGSSSNIGNNYVAWYQQLPGTAPKLLIYENNKRPSGIPGRFSGSKSATSATLGITGLQTGDEADYYCGTWDNSLSAWVFGGGTKLTVL', 'TRUE'),
  ('anti-MOG MO3J-37 antibody (scFv, V domains shown) VH: EVQLVESGGGLVQPGRSLRLSCAASGFTFDDYAMHWVRQAPGKGLEWVSGISWNSGSIGYADSVKGRFTISRDNAKNSLYLQMNSLRAEDTALYYCAKDMRAVAGTEGAFDIWGQGTMVTVSS VL: QSVVTQPPSMSAAPGQKVTISCSGSSSNIGNNYVSWYQQLPGTAPKLLIYENNKRPSGISDRFSGSKSGTSATLGITGLQTGDEADYYCATGDSGMTLVFGGGTKLTVL', 'FALSE'),
  ('anti-MOG MO3F-02 antibody (scFv, V domains shown) VH: QVQLQQSGPGLVKPSQTLSLTCAISGDSVSSNSAAWNWIRKSPSRGLEWLGRTYYRSKWYNDYAVSVKSRITINPDTSKNQFSLQLSSVTPEDTAVYYCARASAGTFGYWGQGTLVTVSS VL: DIVMTQSPSSLSASVGDRVTMTCRASQTINTYLNWYQQKPGKAPKLLIYAASTLQSGVPSRFSGSGSGTDFSLTISSLQPEDFATYYCQHGYNNPPFTFGPGTKVDIK', 'FALSE');

Ask: Please state whether ratio OD on target/OD bdf is below 6 ratio for anti-MOG MO3I-56 antibody (scFv, V domains shown) VH: QVQLVESGGGVVQPGSSLRLSCTASGFKFDDYAMHWVRQAPGKGLEWVSGISWNSGSIGYADSVKGRFTISRDNAKNSLYLQMNSLRAEDTASYYCAKSLPHYYDSPPYGMDVWGQGTLVTVSS VL: DIQLTQSPSSLSASVGDRVTITCRASQGISSALAWYQQKPGKAPKLLIYDASSLESGVPSRFSGSGSGTDFTLTISSLQPEDFATYYCQHRGTFGGGTKVDIK
Result: TRUE

Ask: Confirm or reject: ratio OD on target/OD bdf of anti-MOG MO4B-43 antibody (scFv, V domains shown) VH: DEVQLLESGGGLVPGGSLRLSCEVSGFSFSNHAMHWVRQAPGKALEHLSVLGSDGRSTYYADSVKGRFTISRDISKTTVYLQMGSLRPGDMGVYYCARGLYGDHWDASDLWGQGTMVTVSS VL: EIVMTQSPATLSVSPAERVILSCRASQSVGNNVAWFQQKPGQAPRLLIHGASSRATGIPTRFSGSGSGTELTLTISSLQSEDFAVYYCQQYGSAPITFGQGTRLEIK lies strictly below 6 ratio
Result: FALSE

Ask: Hello, I'm reviewing records and need to know if ratio OD on target/OD bdf of anti-MOG MO3I-63 antibody (scFv, V domains shown) VH: QVQLVQSGAEVKTPGASVKISCKASGYAFTSYAMHWVRAPGQGLEWMGWINAANANTKYSQRFQGRVTITRDTSASTAYMELNSLRSEDTAVYYCASSEDISRSNYYNYYMDVWGKGTTVTVSS VL: DIVMTQSPSSLSASVGDRVTITCRASQTITTSLAWFQHRPGKAPKLLIYSASSLQSGVPSRFSGSGSGTDFTLTISSLQPEDFATYSCQQTYSAPPTFGGGTKVEIK is below 6 ratio. Could you check?
Result: TRUE

Ask: For anti-MOG MO3J-19 antibody (scFv, V domains shown) VH: EVQLVQSGAEVKKPGASVKVSCKASGYTFTSYGISWVRQAPGQGLEWMGWISAYNGNTNYAQKLQGRVTMTTDTSTSTAYMELRSLRSDDTAVYYCARNMGCSSTSCFVSWFDPWGQGTLVTVSS VL: QSVLTQPPSASGTPGQRVTISCSGSTSNIGSQIVNWYQQLPGTAPRLIIYNDNERPSGVSDRFSGSKSDTSASLAISGLQSEDEADYYCAAWDDSLNGYVFGTGTKVTVL , is the recorded ratio OD on target/OD bdf below the cut-off of 6 ratio?
Result: TRUE

Ask: Dear reviewer, please state whether anti-MOG MO3J-26 antibody (scFv, V domains shown) VH: QVQLVQSGAEVKKPGSSVKVSCKASGGTFSTYTLSWVRQAPGKGLEWMGGFDPEDGETIYAQKFQGRVTMTEDTSTDTAYLELSSLRSDDTAVYYCAADEFWGPGTLVTVSS VL: QSVLTQPPSVSAAPGQTVTISCSGSSSNIGNNYVSWYQQLPGTAPKLLIYDNNKRPSGIPDRFSGSKSGTSATLGITGLQTGDEADYYCGTWDSSLSAVVFGGGTKLTVL has ratio OD on target/OD bdf strictly beneath 6 ratio.
Result: TRUE
